Where these numbers come from: ChEMBL document CHEMBL1201862

Catalogue of molecules with associated GI50
Test system: Malme-3M
Test: NCI tumour cell line growth inhibition, 48 h
The source made the active and inactive calls. Rule as the data show it: active = GI50 up to about 1.1 µM and inactive = higher.

{"molecule": "CC(C)N(C(=O)C12C3C4C1C1C2C3C41C(=O)C(C)(C)C)C(C)C (configuration not stated)", "GI50": "> 100 µM (inactive)"}
{"molecule": "N#CC(=N)c1ncn(CCO)c1NC(=O)C(F)(F)F", "GI50": "> 100 µM (inactive)"}
{"molecule": "CCOC(=O)CCC(C(=O)OCC)n1nnc2cc(Nc3c(C)[n+]([O-])c4cc(Cl)ccc4[n+]3[O-])ccc21 (configuration not stated)", "GI50": "> 100 µM (inactive)"}
{"molecule": "CC(C)=CC(=O)Oc1ccc([N+](=O)[O-])cc1", "GI50": "> 100 µM (inactive)"}
{"molecule": "CC1(C)O[C@@H]2C[C@H]3[C@@H]4C[C@H](F)C5=CC(=O)C=C[C@]5(C)[C@@]4(F)[C@@H](O)C[C@]3(C)[C@]2(C(=O)CO)O1 [FLUOCINOLONE ACETONIDE]", "GI50": "> 100 µM (inactive)"}
{"molecule": "C=C(C(=O)OC)c1cc2ccccc2n1S(=O)(=O)c1ccccc1", "GI50": "2.11 µM (inactive)"}
{"molecule": "COC(=O)C1(c2ccc(N(C)C)cc2OC)CCCN(C(=O)Oc2ccccc2[N+](=O)[O-])CCc2c1[nH]c1ccccc21 (configuration not stated)", "GI50": "> 100 µM (inactive)"}
{"molecule": "c1ccc2c(c1)c1ccccc1c1n[se]nc21", "GI50": "> 100 µM (inactive)"}

// next entry
-- ask Dear colleague, I am looking for the recorded GI50 of the following molecule: Cc1ccc(S(=O)(=O)c2c3nc4ccccc4nc3n3c2[nH]c2ccccc23)cc1
-- reply > 100 µM (inactive)

* * *

Test system: OVCAR-8
Assay: NCI tumour cell line growth inhibition, 48 h
Structures can show the parent of a compound that is named as a salt. Activity calls are given as the source filed them. Rule as the data show it: active = GI50 up to about 1.1 µM and inactive = higher.
Quick reference for GI50 among some molecules

{"molecule": "BrC1=CC=C2NC=CC3=CC=NC1C32 (stereo unspecified)", "GI50": "16.4 µM (inactive)"}
{"molecule": "CN(C)CCOC(c1ccccc1)c1ccccc1 [DIPHENHYDRAMINE HYDROCHLORIDE]", "GI50": "> 100 µM (inactive)"}
{"molecule": "COc1ccc2nc(-c3cccc(N(C)C)c3)cc(O)c2c1", "GI50": "0.186 µM (active)"}
{"molecule": "O=C1N(c2ccccc2)C2(c3ccccc3)CC3CCCC13S2 (stereo unspecified)", "GI50": "> 100 µM (inactive)"}

-- ask May I ask what GI50 has been recorded for Clc1ccc(OCc2nnc(CCCCCCCCc3nnc(COc4ccc(Cl)cc4Cl)n3Nc3ccccc3)n2Nc2ccccc2)c(Cl)c1 ?
-- reply 17.4 µM (inactive)

-- ask Same again, this time with Nc1ncc(N)c(NCC2(CO)CC(CCc3ccccc3)C2)n1 (stereo unspecified)
-- reply 10.5 µM (inactive)

-- ask Next entry: COC(=O)c1onc(C2OC(C)(C)OC2C(O)COC(c2ccccc2)(c2ccccc2)c2ccccc2)c1C(=O)OC (stereo unspecified)
-- reply > 100 µM (inactive)

-- ask Entry CC1(Sc2ccccc2)CN(Cc2ccccc2)C1=O (stereo unspecified) please
-- reply > 100 µM (inactive)

-- ask Repeat for the following molecule: O=[N+]([O-])c1ccc(N=P(c2ccccc2)(c2ccccc2)c2ccccc2)n2nnnc12
-- reply 31 µM (inactive)

-- ask // same read-out, input: CC1=C(C(=O)OC(C)C)C(c2ccccc2C(F)(F)F)C(C(=O)OC(CO[N+](=O)[O-])CO[N+](=O)[O-])=C(C)N1 (stereo unspecified)
-- reply 8.13 µM (inactive)

* * *

Tested on: NCI/ADR-RES
Test: NCI tumour cell line growth inhibition, 48 h
Where a name gives a salt, the structure may show the parent alone. Calls of active or inactive are those of the source. Cut-off read from the data, not from the text of the source: active = GI50 up to about 1.1 µM and inactive = higher.
Could you please pick one outcome from this set? 1.0 for active, 0.0 for inactive

Here's what some known entries look like.
{"molecule": "COc1ccc(/C=C2\\CCC(C)C3=C2NC(=S)NC3c2ccc(OC)c(OC)c2)cc1OC (stereo not given)", "discrete_label": 0.0}
{"molecule": "O=C(O)c1ccc(C(=O)O)c(C(=O)Nc2ccc3c(c2)C(=O)c2ccccc2-3)c1", "discrete_label": 0.0}
{"molecule": "CN(C)CCOC(c1ccccc1)c1ccccc1 [DIPHENHYDRAMINE HYDROCHLORIDE]", "discrete_label": 0.0}
{"molecule": "Cc1cc2c(c(C)c1O)C(C)(C)CN2C(=O)C(C)(C)C", "discrete_label": 0.0}

-- ask Hello, I am checking results. What call was entered for O=[N+]([O-])C(=C(N1CCOCC1)N1CCOCC1)/C(Cl)=C(\Cl)[N+](=O)[O-] ?
-- reply 0.0

-- ask Try the molecule CCOC(=O)/C(C(=O)Nc1ccc(Cl)cc1)=C(/N)N1CCCC1
-- reply 0.0

-- ask Entry CO[C@H]1C[C@](C)(O)Cc2cc3c(c(O)c21)C(=O)c1c(O)cc2c(c1C3=O)O[C@@H]1O[C@@]2(C)[C@H](O)[C@@H](N(C)C)[C@@H]1O please
-- reply 0.0

-- ask Quick one: Cc1cccc(Nc2nc(NNC(=O)Cc3ccccc3)nc(NNC(=O)c3ccncc3)n2)c1
-- reply 0.0

-- ask Param item: CC(=O)/C(=C\I)c1ccccc1
-- reply 0.0

-- ask Query COc1cc(C2c3cc4c(cc3[C@@H](Nc3ccc(N5CCOCC5)cc3)C3COC(=O)[C@H]23)OCO4)cc(OC)c1O (stereo not given in full) next
-- reply 0.0

-- ask Would you kindly repeat that for CC(=O)O[C@H]1C[C@]2(O)[C@@H]3CC[C@@H]4C[C@@H](O)CC[C@]4(C)[C@H]3CC[C@]2(C)[C@H]1C1=CC(=O)OC1 ?
-- reply 1.0

-- ask Entry to check: O=P1(N2CCOCC2)OCCO1
-- reply 0.0

-- ask Same read-out for COc1ccc(C[C@H]2COC(=O)[C@@H]2Cc2cc(OC)c(OC)c(OC)c2)cc1OC ?
-- reply 0.0

-- ask // repeat for Clc1ccccc1-c1nnc2c(-c3ccccc3)nc3ccccc3n12 and report
-- reply 0.0

-- ask Also, CC(C#N)Nc1ccc(Oc2ccc(C(C)(C)c3ccc(Oc4ccc(NC(C)C#N)cc4)cc3)cc2)cc1 (stereo not given) please.
-- reply 0.0

* * *

System: DU-145
Assay: NCI tumour cell line growth inhibition, 48 h
Activity calls are given as the source filed them. Cut-off read from the data, not from the text of the source: active = GI50 up to about 1.1 µM and inactive = higher.
The reply should name one outcome from 1 for active, 0 for inactive

{"compound": "CC(C)(C)c1ccc2c(c1)C#Cc1cc3c(cc1OCCCO2)C#Cc1cc(C(C)(C)C)ccc1OCCCO3", "discrete_label": 0}
{"compound": "CCOC(=O)c1c(N2CCOCC2)[nH]c(=O)c(C(c2ccc(Cl)c([N+](=O)[O-])c2)c2c(O)c(C(=O)OCC)c(N3CCOCC3)[nH]c2=O)c1O", "discrete_label": 0}
{"compound": "CC(C)(C)OC(=O)[N+](=N)C(=O)C1CCC(=O)N1C(=O)OCc1ccccc1 (configuration not stated)", "discrete_label": 0}
{"compound": "COc1cccc(/C=C2\\CCCc3ccccc3C2=O)c1", "discrete_label": 0}
{"compound": "CCCCCCCCCCCCCCC(O)C[N+](C)(CCO)CCO (configuration not stated)", "discrete_label": 0}
{"compound": "Cc1nnc2ccccc2c1O", "discrete_label": 0}
{"compound": "O=C1NC(c2cccc3ccccc23)Nc2ccc(Cl)cc21 (configuration not stated)", "discrete_label": 1}
{"compound": "O=C(NC(Cc1c[nH]c2ccccc12)C(=O)O)/C(=C/c1ccccc1)NC(=O)c1ccccc1 (configuration not stated)", "discrete_label": 0}
{"compound": "O=C(O)c1cc2ccccc2c(/N=N/c2ccc(S(=O)(=O)Nc3nccs3)cc2)c1O", "discrete_label": 0}
{"compound": "C=C1[C@H](OC(=O)C(C)C)[C@@H](OC(C)=O)[C@@H](OC(C)=O)C(C)(C)[C@@H]2O[C@H]2[C@@H](C)C(=O)[C@@]2(OC(C)=O)C[C@@](C)(OC(C)=O)[C@H](OC(C)=O)[C@@H]2[C@H]1OC(C)=O", "discrete_label": 0}

-- ask Which result was noted for this compound in the test: O=c1c2ccccc2nc2n1CCc1c-2[nH]c2ccc(Br)cc12
-- reply 0

-- ask What would you report for O=C(CCc1ccc(O)c(O)c1)NCCc1cc(O)c(O)c(O)c1 ?
-- reply 0

-- ask Next entry: O=C(CCc1ccccc1CO)NCCc1ccccc1
-- reply 0

-- ask Try Cc1ccc2c(c1)-c1c(C#N)c(N)nc(-c3ccc(Cl)cc3)c1CCS2(=O)=O next.
-- reply 0

-- ask Then this compound: O=C1/C(=C\c2ccc([N+](=O)[O-])cc2)CS(=O)(=O)C/C1=C/c1ccc([N+](=O)[O-])cc1
-- reply 0

-- ask Check COC(=O)C1=CS/C(=C2\S[C@@H]3[C@H](S2)[C@H]2C=C[C@@H]3C2)S1 too.
-- reply 0

-- ask Entry to check: CCO/C=N/C1=C(C#N)SC2=N/C(=C\c3ccccc3)C(=O)N21
-- reply 0
